Measured values drawn from ChEMBL document CHEMBL5528029 for this set.

biological target: NT-3 growth factor receptor (Homo sapiens) (UniProt Q16288); assay: Inhibition of TRK-C (unknown origin) assessed as remaining activity at 1 uM using fluorescein-poly GAT as substrate in presence of ATP by TR-FRET assay relative to control
Sequence (Q16288 32-839 limits assumed): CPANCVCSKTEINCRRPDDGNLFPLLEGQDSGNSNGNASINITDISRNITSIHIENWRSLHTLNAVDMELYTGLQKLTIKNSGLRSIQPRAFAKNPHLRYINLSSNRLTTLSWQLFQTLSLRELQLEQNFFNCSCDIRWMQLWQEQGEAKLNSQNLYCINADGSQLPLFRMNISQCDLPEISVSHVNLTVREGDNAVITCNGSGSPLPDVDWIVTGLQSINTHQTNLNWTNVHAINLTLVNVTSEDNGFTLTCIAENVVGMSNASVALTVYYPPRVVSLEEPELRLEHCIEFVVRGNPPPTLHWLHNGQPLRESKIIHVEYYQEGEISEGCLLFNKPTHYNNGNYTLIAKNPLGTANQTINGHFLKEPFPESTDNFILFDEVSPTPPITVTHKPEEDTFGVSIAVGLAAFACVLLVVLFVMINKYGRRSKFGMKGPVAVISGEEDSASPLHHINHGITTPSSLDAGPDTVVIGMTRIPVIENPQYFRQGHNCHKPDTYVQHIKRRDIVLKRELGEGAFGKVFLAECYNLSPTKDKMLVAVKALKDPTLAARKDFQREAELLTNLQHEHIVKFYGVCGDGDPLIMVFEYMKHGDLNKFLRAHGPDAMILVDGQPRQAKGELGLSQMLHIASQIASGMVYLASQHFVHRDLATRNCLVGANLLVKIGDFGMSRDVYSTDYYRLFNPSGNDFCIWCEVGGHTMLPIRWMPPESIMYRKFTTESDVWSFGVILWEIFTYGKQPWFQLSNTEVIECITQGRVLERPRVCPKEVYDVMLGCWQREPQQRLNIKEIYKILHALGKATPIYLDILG
Activity values by entry
Please give a number only; it is taken to be in %.

Inquiry: Return reported Activity. Input compound: COc1ccc2c(c1)c(CNC(=O)Nc1ccccc1Cl)cn2CC(=O)N1CCCCC1
Reply text: 68.9

Inquiry: Return reported Activity. Input compound: O=C(NCc1cn(CC(=O)N2CCCC2)c2ccc(F)cc12)Nc1ccc(C(F)(F)F)cc1
Reply text: 94.3

Inquiry: Return reported Activity. Input compound: COc1ccc2c(c1)c(CNC(=O)Nc1ccc(C)cc1)cn2CC(=O)N1CCN(C)CC1
Reply text: 90.9

Inquiry: Return reported Activity. Input compound: CN1CCN(C(=O)Cn2cc(CNC(=O)Nc3ccc(C(F)(F)F)cc3)c3cc(F)ccc32)CC1
Reply text: 93.7

Inquiry: Return reported Activity. Input compound: COc1ccc(NC(=O)NCc2cn(CC(=O)N3CCCC3)c3ccc(F)cc23)cc1
Reply text: 110

Continuing:
Inquiry: Return reported Activity. Input compound: Cc1ccc(NC(=O)NCc2cn(CC(=O)N3CCCC3)c3ccc(F)cc23)cc1
Reply text: 91.2

Inquiry: Return reported Activity. Input compound: COc1ccc2c(c1)c(CNC(=O)Nc1ccccc1Cl)cn2CC(=O)N1CCCC1
Reply text: 69.6

Inquiry: Return reported Activity. Input compound: COc1ccc2c(c1)c(CNC(=O)Nc1ccc(C)cc1)cn2CC(=O)N1CCOCC1
Reply text: 87.5

Inquiry: Return reported Activity. Input compound: O=C(NCc1cn(CC(=O)N2CCOCC2)c2ccc(F)cc12)Nc1ccccc1Cl
Reply text: 87.4
